Origin of measurements: patent US20190309059A1

Provide the recorded Periostin (pg/mL), MRCS cells + IL-13 5 ng/mL; antibody at 0.001 nM for the entries that follow.
test.target: his-labeled human IL-13 (immunogen A) (human) (UniProt P35225)
run.description: cell-based or functional assay
// unit must come after the numeric part

Problem: Please give the documented Periostin (pg/mL), MRCS cells + IL-13 5 ng/mL; antibody at 0.001 nM of c70F10A10 (mouse-human chimeric IL-13 antibody) (antibody, V domains shown) VH: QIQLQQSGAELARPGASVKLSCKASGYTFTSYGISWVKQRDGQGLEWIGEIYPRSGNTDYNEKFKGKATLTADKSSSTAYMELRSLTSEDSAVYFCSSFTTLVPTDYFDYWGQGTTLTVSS VL: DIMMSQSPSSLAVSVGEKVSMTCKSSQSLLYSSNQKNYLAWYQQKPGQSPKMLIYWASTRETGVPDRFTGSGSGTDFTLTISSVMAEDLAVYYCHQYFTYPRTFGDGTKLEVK
Solution: 6050 pg/mL

Problem: Please give the documented Periostin (pg/mL), MRCS cells + IL-13 5 ng/mL; antibody at 0.001 nM of c28A2E11 (mouse-human chimeric IL-13 antibody) (antibody, V domains shown) VH: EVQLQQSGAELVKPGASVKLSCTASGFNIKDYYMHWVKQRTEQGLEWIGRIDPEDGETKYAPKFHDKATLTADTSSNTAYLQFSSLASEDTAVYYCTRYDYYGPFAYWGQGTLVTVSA VL: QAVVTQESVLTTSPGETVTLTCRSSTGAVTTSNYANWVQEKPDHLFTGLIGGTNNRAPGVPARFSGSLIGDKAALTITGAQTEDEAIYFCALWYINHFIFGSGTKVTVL
Solution: 6350 pg/mL

Problem: Please give the documented Periostin (pg/mL), MRCS cells + IL-13 5 ng/mL; antibody at 0.001 nM of c35E2C3 (mouse-human chimeric IL-13 antibody) (antibody, V domains shown) VH: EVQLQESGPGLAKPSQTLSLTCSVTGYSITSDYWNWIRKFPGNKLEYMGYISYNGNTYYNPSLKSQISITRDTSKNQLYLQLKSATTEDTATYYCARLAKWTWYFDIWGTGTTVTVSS VL: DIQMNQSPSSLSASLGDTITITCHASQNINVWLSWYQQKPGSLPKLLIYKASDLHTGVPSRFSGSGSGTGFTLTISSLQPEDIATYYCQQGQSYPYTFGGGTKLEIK
Solution: 6020 pg/mL

Problem: Please give the documented Periostin (pg/mL), MRCS cells + IL-13 5 ng/mL; antibody at 0.001 nM of c29D9H8 (mouse-human chimeric IL-13 antibody) (antibody, V domains shown) VH: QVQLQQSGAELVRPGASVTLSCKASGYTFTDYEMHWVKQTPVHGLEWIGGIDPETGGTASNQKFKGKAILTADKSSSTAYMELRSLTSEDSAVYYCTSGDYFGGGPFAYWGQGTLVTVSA VL: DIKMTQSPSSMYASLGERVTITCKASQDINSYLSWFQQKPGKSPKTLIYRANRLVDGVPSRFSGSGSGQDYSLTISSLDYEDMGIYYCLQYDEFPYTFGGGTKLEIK
Solution: 4630 pg/mL
